test: NCI Yeast Anticancer Drug Screen. Data for the mec2-1 strain (AID 157); conditions: S. cerevisiae mec2-1 strain; at 50.0 µM unless noted
This is part of a sample that, as a whole, favours compounds with a hit. Of some 79,000 tested, about 15% had one in any assay. Active and inactive are the calls of the source. Rule as the data show it: active = growth inhibition above about 70%; inactive = the rest.
Classes used: active, inactive

- CCN(CC)CC(C)O (centres undefined): inactive
- CN1C2=NCCN2C(=O)c2cc(Cl)ccc21: inactive
- CC12CCC(CC1(Cl)Cl)C2 (centres undefined): inactive
- Fc1cccc(C(Nc2nncs2)Nc2nncs2)c1F: inactive
- Cc1c2ccncc2c(C)c2c1[nH]c1ccc(O)cc12: inactive
- C/C=C/C#C/C=C1/C=CC(=O)O1: inactive
- COc1ccc2c3c(ccc2c1)[C@@H]1C/C(=C(\OC(C)=O)C(F)(F)F)C(=O)[C@@]1(C)CC3: inactive
- CC1(C)OCC[C@@H]1[Si](C)(C)C: inactive
- CCc1cccc(C(C)C)c1NC(=O)C(=O)Nn1c(=S)[nH]c2ccccc2c1=O: inactive
- Nc1c(F)c(F)c(N=Nc2ccccc2)c(F)c1F: inactive
- NC1CCC[C@@H](O)[C@H]1O (some centres undefined): inactive
- O=C(CSC(=S)N1CCOCC1)Nc1nc2c(s1)CCCC2: inactive
- COc1ccc(/C=N/NC(=O)c2ccccc2)c(OC)c1: inactive
- CC(O)COC(C)C (centres undefined): inactive
- COc1ccccc1NC(=O)C(/C=N/C(=S)NNC(C)=O)=C(/C)O: inactive
- NC(=O)C1(N2CCCC2)CCN(Cc2ccccc2)CC1: inactive
- O=S1(=O)OCCOS(=O)(=O)C1C1c2ccccc2-c2ccccc21: inactive
- COc1ccccc1C(=O)N/N=C/c1cccc([N+](=O)[O-])c1: inactive
- CC(C)(C)CC(C)(C)c1ccc(O)c(CN2CCCCC2)c1: inactive
- O=C(O)CSCC(=O)Nc1ccccc1Cl: inactive
- CCSc1nc2n(c(=S)n1)CCN2C: inactive
- CC(=O)OCCc1cccnc1/C=N/O: inactive
- O=[N+]([O-])C(C(Cl)=C(Cl)Cl)=C(N1CCOCC1)N1CCOCC1: inactive
- CCc1cc(N(C)C)ccc1N=Nc1ccc([N+](=O)[O-])cc1: inactive
- Cc1ccc(S(=O)(=O)N(C)c2ccc3c(c2)C(=O)c2ccccc2-3)cc1: inactive
- O=C(O)c1nc2cn1/C=C\C=NCC1=CN3C=CC=NC3(C(=O)O)N1C2 (centres undefined): inactive
- O=C(O)Cn1c(=O)[nH]c(=O)c2[nH]cnc21: inactive
- O=C(CSc1nnc(-c2ccc(N=Cc3ccc(Cl)cc3)cc2)o1)Nc1cccc([N+](=O)[O-])c1: inactive
- Cc1nc(N(C)C)oc(=O)c1CCc1ccccc1: inactive
- NC1=CNC(=O)C1: inactive
- O=C(C[n+]1ccccc1CO)c1ccc(-c2ccccc2)cc1: inactive
- NC(=S)N/N=C1/CN(c2ccc(Cl)c(Cl)c2)CC(=O)C1c1nc2ccccc2s1 (centres undefined): inactive
- Cc1ccc2[nH]c(=O)[nH]c(=O)c2c1: inactive
- O=C(O)Cc1ccc(O)cc1: inactive
- CCOc1ccc(/C=C(\C(=O)c2ccccc2)S(=O)(=O)c2ccc(OC)cc2)cc1OC: inactive
- N#Cc1sc2c(c1OC(=O)c1cccs1)c(=O)n(-c1ccccc1)c(=S)n2-c1ccccc1: inactive
- CC(C)N(Cc1ccccc1)S(=O)(=O)c1n[nH]c(C(C)(C)C)n1: inactive
- CN(C)Cc1cc(-c2c(Cl)cccc2Cl)no1: inactive
- CS(=O)(=O)OCCN(CCOS(C)(=O)=O)c1ccc(C=Nc2ccc(C(=O)O)c(O)c2)cc1: active
- Nc1ccc(C(=O)O)cc1N: inactive
- N#Cc1ccc(OC(=O)Nc2ccc(F)cc2)cc1: inactive
- O=C(Cc1ccccc1)N/N=C(/c1nc2ccc([N+](=O)[O-])cc2[nH]c1=O)C(O)c1ccccc1Cl (centres undefined): inactive
- CC(C)(C)N=NNc1cn(C2OC(CO)C(O)C2O)c(=O)[nH]c1=O (centres undefined): inactive
- CCOC(=O)c1ccc(NC2Oc3cc4c(cc3C(c3cc(OC)c(OC)c(OC)c3)C2C)OCO4)cc1 (centres undefined): inactive
- O=c1cc(-c2ccccc2)[nH]c2c(F)ccc(F)c12: inactive
- Cc1ccc(C(=O)O)cc1: inactive
- CSc1nc(N)c2cnn(Cc3ccccc3)c2n1: inactive
- CCN(CC)CCNc1ccc2ncn3c4cc(=O)ccc4c(O)c1c23: inactive
- CCCCNC(=O)c1cc(=O)[nH]c(=O)[nH]1: inactive
